Reference for the values: ChEMBL document CHEMBL1135483

- assayed_system: GABA-A receptor; alpha-1/beta-2/gamma-2 (Rattus norvegicus) (UniProt P18508+P62813+P63138)
- measurement_notes: Percent stimulation of GABA-induced currents in Xenopus Oocytes expressing rat GABA-A receptor alpha-1-beta-2-gamma-2 subunits at 200 uM
- Type: functional, cell-based
measured_parameter: Stimulation (%)

| compound | assayed_system | measurement_units | numeric_readout |
| --- | --- | --- | --- |
| O=C1C[C@H](NCc2ccccc2)CO1 (racemic) | GABA-A receptor; alpha-1/beta-2/gamma-2 (Rattus norvegicus) (UniProt P18508+P62813+P63138) | % | 0 |
| C=CC[C@@H]1C(=O)OC[C@H]1NCc1ccccc1 (racemic) | GABA-A receptor; alpha-1/beta-2/gamma-2 (Rattus norvegicus) (UniProt P18508+P62813+P63138) | % | -1 |
| CCCC1(CCC)C(=O)OC[C@H]1NS(=O)(=O)c1cccs1 (racemic) | GABA-A receptor; alpha-1/beta-2/gamma-2 (Rattus norvegicus) (UniProt P18508+P62813+P63138) | % | -16 |
| CCCC1(CCC)C(=O)OC[C@H]1NS(=O)(=O)N(C)C (racemic) | GABA-A receptor; alpha-1/beta-2/gamma-2 (Rattus norvegicus) (UniProt P18508+P62813+P63138) | % | -1 |
| C=CC[C@H]1C(=O)OC[C@H]1NCc1ccccc1 (racemic) | GABA-A receptor; alpha-1/beta-2/gamma-2 (Rattus norvegicus) (UniProt P18508+P62813+P63138) | % | 73 |

[a] CCCC1(CCC)C(=O)OC[C@H]1NC(=O)Oc1ccccc1 (racemic)
[b] CCCC1(CCC)C(=O)OC[C@H]1NS(=O)(=O)c1ccc(C(F)(F)F)cc1 (racemic)
[c] C=CCC1(CC=C)C(=O)OC[C@H]1NCc1ccccc1 (racemic)
[d] CCCC1(CCC)C(=O)OC[C@H]1NS(=O)(=O)c1ccc(OC)cc1 (racemic)
[e] O=C1C[C@H](NC(=O)OCc2ccccc2)CO1 (racemic)
Ask | # desc sort on Stimulation across 5 compounds // ordering of labels required in reply
Reply | a, c, e, d, b
